- assaySystem: T1, biotin-labeled CD47 extracellular domain protein (CD47-ECD) (UniProt Q08722 19-139, limits assumed, biotin-labeled (sites not given))
- T1 construct: extracellular domain; also called CD47 protein
- T1 sequence (Q08722 19-139 limits assumed): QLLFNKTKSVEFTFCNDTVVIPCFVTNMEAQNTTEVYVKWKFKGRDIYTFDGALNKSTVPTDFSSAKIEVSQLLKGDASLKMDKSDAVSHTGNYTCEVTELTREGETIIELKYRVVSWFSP
- assaySummary: blocking ELISA, biotin-CD47-ECD on coated SIRPα-hFc; Ab 200 nM
measureName: OD450 nm of CD47 bound to SIRPα

• 54G8G6 (antibody, V domains shown, Murine hybridoma antibody purified on protein G) VH: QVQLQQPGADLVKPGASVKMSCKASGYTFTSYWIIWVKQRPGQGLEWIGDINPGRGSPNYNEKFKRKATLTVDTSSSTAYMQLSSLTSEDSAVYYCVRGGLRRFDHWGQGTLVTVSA VL: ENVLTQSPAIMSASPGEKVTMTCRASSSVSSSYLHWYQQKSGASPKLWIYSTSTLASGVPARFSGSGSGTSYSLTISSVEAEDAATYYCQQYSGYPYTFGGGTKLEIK = 0.07
• 4D10B11 (antibody, V domains shown, Murine hybridoma antibody purified on protein G) VH: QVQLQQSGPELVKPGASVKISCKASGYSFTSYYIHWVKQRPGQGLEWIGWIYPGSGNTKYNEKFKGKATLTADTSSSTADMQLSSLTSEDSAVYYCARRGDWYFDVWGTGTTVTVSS VL: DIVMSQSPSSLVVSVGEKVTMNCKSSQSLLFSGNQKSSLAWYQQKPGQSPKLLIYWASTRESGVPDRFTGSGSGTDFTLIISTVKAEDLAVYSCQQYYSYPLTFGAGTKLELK = 0.06
• 25E3B5 (antibody, V domains shown, Murine hybridoma antibody purified on protein G) VH: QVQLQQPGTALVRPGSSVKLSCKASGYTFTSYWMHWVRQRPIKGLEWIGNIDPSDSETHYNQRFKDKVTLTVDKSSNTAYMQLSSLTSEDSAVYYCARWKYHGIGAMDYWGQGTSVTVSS VL: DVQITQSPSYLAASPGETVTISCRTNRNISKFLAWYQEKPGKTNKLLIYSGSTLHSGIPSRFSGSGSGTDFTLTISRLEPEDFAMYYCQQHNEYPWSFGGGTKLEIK = 0.06
• 51E2F11 (antibody, V domains shown, Murine hybridoma antibody purified on protein G) VH: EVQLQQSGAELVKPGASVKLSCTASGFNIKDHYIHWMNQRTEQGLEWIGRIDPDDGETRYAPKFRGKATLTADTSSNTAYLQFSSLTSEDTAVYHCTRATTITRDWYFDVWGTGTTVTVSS VL: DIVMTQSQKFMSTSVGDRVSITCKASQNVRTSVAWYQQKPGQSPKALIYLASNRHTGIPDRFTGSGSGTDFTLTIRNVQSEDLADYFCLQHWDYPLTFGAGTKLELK = 0.07
• 95E2D10 (antibody, V domains shown, Murine hybridoma antibody purified on protein G) VH: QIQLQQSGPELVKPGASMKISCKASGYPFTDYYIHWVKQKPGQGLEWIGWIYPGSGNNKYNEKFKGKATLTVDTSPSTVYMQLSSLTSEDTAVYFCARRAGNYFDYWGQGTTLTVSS VL: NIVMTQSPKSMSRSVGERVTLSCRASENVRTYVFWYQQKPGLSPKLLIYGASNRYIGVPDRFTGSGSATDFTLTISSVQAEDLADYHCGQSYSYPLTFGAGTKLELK = 0.06
